The reported measurements were obtained from patent US12421271B2.

# ASSAY_COMMENT: pKa values / major species of ionization
# Assay type: physicochemical
# ASSAY_CONDITIONS: zwitterion / anion boundary pH; read-out: pKa (second), boundary between major species of ionization
MEASURE: pKa

Q: Please give the documented pKa of CCCN1CCC[C@@H]2Cc3c(ccc(O)c3O[C@@H]3O[C@H](C(=O)O)[C@@H](O)[C@H](O)[C@H]3O)C[C@H]21
Result: 8.8

###

# ASSAY_COMMENT: pKa values / major species of ionization
# Type: physicochemical
# ASSAY_CONDITIONS: cation / zwitterion boundary pH; read-out: pKa (first), boundary between major species of ionization
MEASURE: pKa
When you answer, write just the number.

Q: Tell us which pKa value is on record for CCCN1CCC[C@@H]2Cc3c(ccc(O)c3O[C@@H]3O[C@H](C(=O)O)[C@@H](O)[C@H](O)[C@H]3O)C[C@H]21
Result: 2.8
